Molecular target: UniProt P07900
Type: functional, organism-based
Activity calls are given as the source filed them.
readout.type: AC50

- compound: "Cc1sc(NC(=O)c2ccco2)c(C(c2cccnc2)N2CCC(C)CC2)c1C (stereo not drawn)"
  result: "4.94 µM (active)"
- compound: "Oc1ccc(N=Nc2ccc3ccccc3c2)cc1"
  result: "4.38 µM (active)"
- compound: "O=c1cc(-c2ccccc2)cc(-c2ccccc2)n1O"
  result: "1.13 µM (active)"

====

Experiment: fluconazole-exposed Candida albicans growth modulators – fluorescence, retest, confirmation (AID 2467)
Format: functional, cell-based
Active and inactive are the calls of the source.
Reported EC50 values for the following compounds.

- compound: "O=C(CCS(=O)(=O)c1ccccc1)Nc1ncc([N+](=O)[O-])s1"
  EC50: "0.746 µM (active)"
- compound: "O=[N+]([O-])c1ccc2c(c1)nc(S)n2-c1ccccc1"
  EC50: "2.85 µM (active)"
- compound: "CCN=C(S)NNC(=O)c1cc(-c2ccc(OC)cc2)nc2ccccc12"
  EC50: "> 38 µM (not active)"
- compound: "Cc1ccc2c(c1)C1CN(C)CCC1N2Sc1ccccc1[N+](=O)[O-] (centres undefined)"
  EC50: "> 38 µM (not active)"

====

Tested on: Streptococcus sp. 'group A'
Experiment: Streptococcus pyogenes SK(-)GAS viability under kanamycin – luminescence, BacTiterGlo, confirmation, counter-screen for streptokinase expression inhibitor project, dose response (AID 1900)
Assay type: functional, organism-based
Structures can show the parent of a compound that is named as a salt. Calls of active or inactive are those of the source.

- compound: "NC1CCN(c2nc3c(cc2F)c(=O)c(C(=O)O)cn3-c2ccc(F)cc2F)C1 (stereo unspecified) [TOSUFLOXACIN TOSYLATE]"
  EC50: "0.276 µM (active)"
- compound: "O=S(=O)(Nc1cccc2cccnc12)c1ccccc1"
  EC50: "3.27 µM (active)"
- compound: "Cc1nnc(Sc2cc(NCCCO)c([N+](=O)[O-])c3nonc23)s1"
  EC50: "6.33 µM (active)"
- compound: "Cc1ccc2[nH]c(O)c(N=NC(=O)c3ccc(NS(=O)(=O)c4cccs4)cc3)c2c1"
  EC50: "0.429 µM (active)"
- compound: "O=C(Nc1ccn(Cc2c(F)c(F)cc(F)c2F)n1)c1ccc(COc2ccc(Cl)cc2Cl)o1"
  EC50: "36.3 µM (active)"
- compound: "COc1cccc(-c2cc(C(F)(F)F)nc(N3CCC(C)CC3)n2)c1"
  EC50: "5.93 µM (active)"
- compound: "CCOc1ccccc1NC(=O)c1nc(S(=O)(=O)Cc2ccccc2)ncc1Cl"
  EC50: "12.5 µM (active)"
- compound: "O=S(=O)(Nc1c(S(=O)(=O)c2ccccc2)c2nc3ccccc3nc2n1C1CCCCC1)c1ccccc1"
  EC50: "5.18 µM (active)"
- compound: "C/C(=N\\NC(=S)NCC(C)(C)C)c1cc(F)cc(F)c1O"
  EC50: "1.32 µM (active)"
- compound: "COc1ccc(Br)cc1S(=O)(=O)Nc1nc[nH]n1"
  EC50: "> 150 µM (not active)"
- compound: "Cc1n[nH]c(Nc2ccc(C(C)C)cc2)c1[N+](=O)[O-]"
  EC50: "30.9 µM (active)"
